# ASSAY TARGET: human GnRH receptor (Homo sapiens, UniProt P30968)
# Construct: expressed in transfected cells; host or cells: CHO (Chinese Hamster Ovary) cells
# Sequence (P30968 1-328): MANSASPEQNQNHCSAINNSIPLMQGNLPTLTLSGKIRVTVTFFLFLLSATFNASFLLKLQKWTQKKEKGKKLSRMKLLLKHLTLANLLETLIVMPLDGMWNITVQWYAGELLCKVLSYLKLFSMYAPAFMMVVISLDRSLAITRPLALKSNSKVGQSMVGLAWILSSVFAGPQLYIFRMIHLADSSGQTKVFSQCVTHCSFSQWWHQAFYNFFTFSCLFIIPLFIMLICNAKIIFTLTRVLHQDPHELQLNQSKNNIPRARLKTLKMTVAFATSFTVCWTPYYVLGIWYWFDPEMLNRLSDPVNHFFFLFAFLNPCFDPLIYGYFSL
# MEASUREMENT PROTOCOL: 125I-leuprorelin binding assay, human GnRH receptor CHO cell membrane fraction
# CONDITION DESCRIPTION: 10 nM of the testing compound, room temperature for 1 hour, read-out: Binding inhibitory ratio (%)
Where a name gives a salt, the structure may show the parent alone.

COMPOUND: O=C(O)c1cccc2[nH]c(=O)n(-c3cc(S(=O)(=O)N4CCCc5ccccc54)ccc3Cl)c(=O)c12
ASSAY TARGET: human GnRH receptor (Homo sapiens, UniProt P30968)
UNITS OF MEASURE: %
inhibition at 0.01 µM: 98.2
//
COMPOUND: O=c1[nH]c2ccccc2c(=O)n1-c1cc(S(=O)(=O)N2CCCCc3sccc32)ccc1Cl
ASSAY TARGET: human GnRH receptor (Homo sapiens, UniProt P30968)
UNITS OF MEASURE: %
inhibition at 0.01 µM: 94.5
//
COMPOUND: CN(C(=O)c1cc(-n2c(=O)[nH]c3cccc(CO)c3c2=O)c(Cl)s1)c1ccccc1
ASSAY TARGET: human GnRH receptor (Homo sapiens, UniProt P30968)
UNITS OF MEASURE: %
inhibition at 0.01 µM: 84.2
//
COMPOUND: O=c1[nH]c2ccccc2c(=O)n1-c1cc(S(=O)(=O)N2CCCCc3ccccc32)ccc1Cl
ASSAY TARGET: human GnRH receptor (Homo sapiens, UniProt P30968)
UNITS OF MEASURE: %
inhibition at 0.01 µM: 95.6
//
COMPOUND: O=c1[nH]c2ccccc2c(=O)n1-c1cc(S(=O)(=O)N2CCCOc3ccccc32)ccc1Cl
ASSAY TARGET: human GnRH receptor (Homo sapiens, UniProt P30968)
UNITS OF MEASURE: %
inhibition at 0.01 µM: 87.6
//
COMPOUND: N=c1c2ccccc2[nH]c(=O)n1-c1cc(S(=O)(=O)N2CCCc3ccccc32)ccc1Cl
ASSAY TARGET: human GnRH receptor (Homo sapiens, UniProt P30968)
UNITS OF MEASURE: %
inhibition at 0.01 µM: 91.7
//
COMPOUND: CN(C(=O)c1cc(-n2c(=O)[nH]c3cccc(CO)c3c2=O)c(Cl)s1)C1CCCCC1
ASSAY TARGET: human GnRH receptor (Homo sapiens, UniProt P30968)
UNITS OF MEASURE: %
inhibition at 0.01 µM: 79
//
COMPOUND: CN(C(=O)c1ccc(Cl)c(-n2c(=O)[nH]c3ccccc3c2=O)c1)c1ccccc1
ASSAY TARGET: human GnRH receptor (Homo sapiens, UniProt P30968)
UNITS OF MEASURE: %
inhibition at 0.01 µM: 88.9
//
COMPOUND: CC(C)CN(C)C(=O)c1cc(-n2c(=O)[nH]c3cccc(CO)c3c2=O)c(Cl)s1
ASSAY TARGET: human GnRH receptor (Homo sapiens, UniProt P30968)
UNITS OF MEASURE: %
inhibition at 0.01 µM: 76.2
//
COMPOUND: O=c1[nH]c2ccccc2c(=O)n1-c1cc(S(=O)(=O)N2CCCc3ccccc32)ccc1F
ASSAY TARGET: human GnRH receptor (Homo sapiens, UniProt P30968)
UNITS OF MEASURE: %
inhibition at 0.01 µM: 75.5
//
COMPOUND: CN(c1ccccc1)S(=O)(=O)c1ccc(Cl)c(-n2c(=O)[nH]c3ccccc3c2=N)c1 [Example 8, trifluoroacetate]
ASSAY TARGET: human GnRH receptor (Homo sapiens, UniProt P30968)
UNITS OF MEASURE: %
inhibition at 0.01 µM: 84.7
//
COMPOUND: O=c1[nH]c2cccc(CO)c2c(=O)n1-c1cc(S(=O)(=O)N2CCCc3ccccc32)ccc1Cl
ASSAY TARGET: human GnRH receptor (Homo sapiens, UniProt P30968)
UNITS OF MEASURE: %
inhibition at 0.01 µM: 96.7
//
COMPOUND: N#Cc1sc(S(=O)(=O)N2CCCCc3ccccc32)cc1-n1c(=O)[nH]c2ccccc2c1=O
ASSAY TARGET: human GnRH receptor (Homo sapiens, UniProt P30968)
UNITS OF MEASURE: %
inhibition at 0.01 µM: 77.4
//
COMPOUND: CN(C(=O)c1ccc(Cl)c(-n2c(=O)[nH]c3cccc(CO)c3c2=O)c1)c1ccccn1
ASSAY TARGET: human GnRH receptor (Homo sapiens, UniProt P30968)
UNITS OF MEASURE: %
inhibition at 0.01 µM: 98.2
//
COMPOUND: CN(C(=O)c1cc(-n2c(=O)[nH]c3cccc(CO)c3c2=O)c(Cl)s1)c1cccc(Cl)c1
ASSAY TARGET: human GnRH receptor (Homo sapiens, UniProt P30968)
UNITS OF MEASURE: %
inhibition at 0.01 µM: 93.8

// data source = patent US20070010537A1
